All values here come from PubChem BioAssay AID1209.

# Test system: Mannose-6-phosphate isomerase (Homo sapiens) (UniProt P34949)
# Sequence (P34949 whole entry, looked up): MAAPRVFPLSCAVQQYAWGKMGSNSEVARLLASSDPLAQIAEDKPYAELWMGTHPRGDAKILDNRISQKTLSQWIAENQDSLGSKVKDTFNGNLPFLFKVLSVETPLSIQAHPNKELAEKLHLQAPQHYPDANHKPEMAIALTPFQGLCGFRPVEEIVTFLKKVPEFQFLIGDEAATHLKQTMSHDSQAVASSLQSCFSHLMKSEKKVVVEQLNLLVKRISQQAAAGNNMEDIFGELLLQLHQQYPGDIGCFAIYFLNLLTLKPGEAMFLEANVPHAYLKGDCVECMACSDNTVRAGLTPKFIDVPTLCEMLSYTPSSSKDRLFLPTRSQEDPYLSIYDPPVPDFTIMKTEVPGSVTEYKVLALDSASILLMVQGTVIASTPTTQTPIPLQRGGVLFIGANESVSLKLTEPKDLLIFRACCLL
# Assay remarks: inhibitors of human PMI, primary screen, biochemical, fluorescence intensity, coupled assay (AID 1209);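 also: plate controls were DMSO vehicle for no effect and wells lacking substrate for full effect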
# Cond: purified PMI enzyme, at 20 µM
Out of some 190,000 compounds screened, about 810 (0.43%) were called active. Rule as the data show it: active = inhibition above about 50%; inactive = the rest. Only a selection was taken, and actives are over-represented in it overall.
Labels: active, inactive

>>> df
                                   molecule  label_value
0  CC(C)CC(C(=O)Nc1ccc2c(c1)OCCO2)N1C(=O)c2ccccc2C1=O (stereo not given)     inactive
1  CCC1(c2ccccc2)NC(=O)N(Cc2ccc(C(=O)OC)cc2)C1=O (stereo not given)     inactive
2  COc1ccc(S(=O)(=O)NCC(=O)N(CC(=O)NC(C)(C)C)Cc2cccs2)cc1       active
3  COC(=O)Cn1c(=O)n(CCc2ccccc2)c(=O)c2c3c(sc21)CCCC3     inactive
4  COc1ccc(CNS(=O)(=O)c2cccc(S(=O)(=O)N3CCOCC3)c2)cc1     inactive

---

# Test system: Mannose-6-phosphate isomerase (Homo sapiens)
# Assay remarks: inhibitors of human PMI, primary screen, biochemical, fluorescence intensity, coupled assay (AID 1209);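 also: plate controls were DMSO vehicle for no effect and wells lacking substrate for full effect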
# Cond: purified PMI enzyme, at 20 µM
The whole screen tested about 190,000 compounds, of which about 810 (0.43%) were called active. No stated cut-off is given here; in the data, active means inhibition above about 50%; inactive means the rest. The entries come from a sample that favours actives as a whole.
Labels: true = active, false = inactive

>>> df
                                    compound  label_value
 0  COC(=O)Nc1ccc(S(=O)(=O)Nc2cnc3ccccc3n2)cc1        false
 1                 COc1ccc(-c2nn[nH]n2)cc1OC        false
 2        COc1cccc2c1C(=O)c1ccc3ccccc3c1C2=O        false
 3     CCOc1ccc(OCC)c(NC(=O)CN2CCN(CC)CC2)c1         true
 4         Cc1cc2cc(C=C(C#N)C#N)c(Cl)nc2cc1C        false
 5  O=C(CNc1cccc2ccccc12)c1ccc([N+](=O)[O-])cc1        false
 6  CSCC[C@H](NC(=O)c1cc([N+](=O)[O-])ccc1Cl)c1nc2ccccc2[nH]1        false
 7        CC[n+]1c(/C=C/Nc2ccccc2)oc2ccccc21        false
 8   CCOC(=O)c1c(-c2ccc(C)cc2)csc1/N=C/N(C)C        false
 9  CCOc1ccc(OCC)c(NC(=O)CN2CCN(c3cccc(C)c3)CC2)c1        false
10  Cc1cccc(NCCC(=O)c2ccc([N+](=O)[O-])cc2)c1C         true
11           CCOC(=O)c1c(NCc2ccccc2)n[nH]c1C        false
12         CC[n+]1ccccc1/C=C/c1ccc(N(C)C)cc1        false
13            CN(C)/C=C1\Oc2ccc3ccccc3c2C1=O         true
14  Cc1ccc(C(=O)Nc2sc(C)c(C)c2C(=O)c2ccccc2)cc1         true
15  CC(=O)N1CCc2c(sc(NC(=O)c3ccc([N+](=O)[O-])o3)c2C#N)C1         true
16  CC(=O)Oc1ccc2c(=O)c(N3C(=O)c4ccccc4C3=O)c(C)oc2c1C        false
17  CCC1S/C(=N/C(=O)NC2CCCCC2)NC1=O (configuration not stated)        false
18  Cc1ccc(-n2nnc3c(=O)n(Cc4ccccn4)cnc32)cc1C        false
19  CCOc1cc(/C=C2/C(=O)N(c3ccccc3)N=C2C)ccc1OC(=O)c1cccs1        false
20  CCc1c(C(C)S(=O)(=O)c2ccccc2)[nH]c(=O)n1CC (configuration not stated)        false
21    O=c1cc2[nH]c3ccccc3c(=O)n2nc1-c1ccccc1         true
22            CCCCCCCCc1nnc(NC(=O)c2ccco2)s1        false
23  O=C(CCNc1ccc(Br)cc1)c1cccc([N+](=O)[O-])c1        false
24  COc1cc2nc(CN(C)Cc3ccc(Cl)cc3)[nH]c(=O)c2cc1OC        false
25  CC(=O)SC(C[N+](=O)[O-])c1cn(C(C)=O)c2ccccc12 (configuration not stated)         true
26  CCCC(=O)C1=C(O)C(c2cccc(Oc3ccccc3)c2)CCC1=O (configuration not stated)        false
27  Fc1ccc(C2CCCN2Cc2nc(Cc3ccccc3)no2)cc1 (configuration not stated)        false
28               CC[n+]1ccccc1/C=C/Nc1ccccc1         true
29  CCCn1c(=O)c2ccccc2n2c(SCCOc3ccc(C)cc3)nnc12        false
30  CC(C)(C)c1nn(-c2ccccc2)c2nc(Cl)c(C=O)cc12        false
31            O=c1cc(-c2ccccc2)[nH]c2ccccc12        false
32  Cc1cc(C)c(NC(=O)COC(=O)c2cccc3c2C(=O)c2ccccc2C3=O)c(C)c1        false
33  CS(=O)(=O)c1ccc2nc(NC(=O)CCC(=O)c3cccs3)sc2c1        false
34  CCOc1cc(/C=C2/C(=O)N(c3ccccc3)N=C2C)ccc1OC(=O)c1ccco1        false
35                 Cc1cc2cc(C=O)c(Cl)nc2cc1C         true
36  COCCN(CCOC)S(=O)(=O)c1ccc(C(=O)Nc2nnc(COC)o2)cc1        false
37              COc1ccc(-c2nnn(CC#N)n2)cc1OC        false
38  COc1ccc(C(=O)Nc2sc3c(c2C#N)CCN(C(C)=O)C3)cc1        false
39     O=c1c(Cc2ccc(F)cc2)c(O)ccn1CCCn1ccnc1        false
40  CCC(C)c1ccccc1NC(=O)Cc1coc2cc3c(cc12)CCC3 (configuration not stated)        false
41  Cc1cccc(NC(=O)c2ccccc2OCC(=O)N2CCOCC2)c1C        false
42    Cc1sc(NC(=O)c2ccccc2)c(C(=O)NC(C)C)c1C        false
43          CN(C)/C=C1/Oc2c(ccc3ccccc23)C1=O        false
44  Cc1ccc(NCC(=O)c2ccc([N+](=O)[O-])cc2)cc1        false
45  Cc1ccc(C(C)(C)C)cc1S(=O)(=O)NC(=O)c1ccccc1        false
46  Cc1sc(NC(=O)c2ccccc2)c(C(=O)c2ccccc2)c1C         true

---

Collected inhibition values appear next to each entry.
# Test system: Mannose-6-phosphate isomerase (Homo sapiens)
# Assay remarks: inhibitors of human PMI, primary screen, biochemical, fluorescence intensity, coupled assay (AID 1209);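 also: plate controls were DMSO vehicle for no effect and wells lacking substrate for full effect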
# Cond: purified PMI enzyme, at 20 µM, active compounds read high
The campaign covered roughly 190,000 compounds. About 810 (0.43%) were called active. The full list was thinned out, with actives kept by preference.
Experimental endpoint: inhibition (%)

In [3]: df
Out[3]:
                                    compound  experimental_endpoint  numeric_readout
 0           CCC(CC)c1nc(C#N)c(NCc2ccccc2)o1             inhibition              5.4
 1     COc1cc(/C=N/Nc2ccc(C(F)(F)F)cn2)ccc1O             inhibition              7.1
 2  O=C1OC(Nc2ccc(F)cc2F)c2ccccc21 (stereo not drawn)             inhibition            -10.1
 3           CCOC(=O)N1CCN(Cc2ccc(F)cc2F)CC1             inhibition             -1.3
 4  Cc1ccc(-n2[nH]c(C)c(C=Nc3ccc4[nH]c(=O)[nH]c4c3)c2=O)cc1             inhibition             16.2
 5  O=C1c2ccccc2C(=O)N1CN(C(=O)COc1ccccc1)c1ccccc1             inhibition              3.5
 6  O=C(O)c1ccc(-c2nc(-c3ccc(Cl)c(Cl)c3)cs2)cc1             inhibition             -3.3
 7  CCOc1cc(C2C(C(=O)O)c3cc(OCC)c(OCC)cc3C(=O)N2C)ccc1O (stereo not drawn)             inhibition                6
 8            COC(=O)c1cccc(-n2[nH]nnc2=S)c1             inhibition             64.8
 9  CN=C(c1ccc(C)cc1)n1c(=S)nc(-c2ccc(C)cc2)n(C)c1=S             inhibition             37.7
10                 Cc1nc(-c2ccc(O)c(O)c2)cs1             inhibition               47
11  CN1CCN(/N=C/c2nc(-c3cccc([N+](=O)[O-])c3)n3ccccc23)CC1             inhibition              8.1
12           Oc1ccc(-c2csc(-c3ccccc3)n2)cc1O             inhibition             62.6
13  N#Cc1ccc(OCC(=O)NCCc2ccc(S(N)(=O)=O)cc2)cc1             inhibition               -7
14  CN=C(c1ccco1)n1c(=S)nc(-c2ccco2)n(C)c1=S             inhibition             51.4
15       Oc1ccc(/C=N/Nc2ccc(C(F)(F)F)cn2)cc1             inhibition             -2.8
16               Cc1ccc(/C=N/n2c(C)nnc2C)cc1             inhibition              3.6
17      COC(=O)c1ccc(NC(=S)NCCCN2CCCC2=O)cc1             inhibition             -0.7
18  COc1cccc2cc(C(C)N(CCCN3CCOCC3)C(=S)Nc3cccc(C)c3)oc12 (stereo not drawn)             inhibition              5.2
19                   Cn1c(-c2ccco2)n[nH]c1=S             inhibition               -5
20  COC(=O)[C@@]1(Cc2ccc(OC)cc2)[C@H]2c3cc(C(=O)N4CCCC4)n(Cc4ccc(C)o4)c3C[C@H]2CN1C(=O)c1ccccc1             inhibition              9.2
21  O=C(NC1CCCC1)c1ccc(CS(=O)(=O)c2ccc(Br)cc2)o1             inhibition               -7
22   Cc1ccc(-c2n[nH]c(=S)n2/N=C/c2ccncc2)cc1             inhibition              -12
